Values were extracted from patent US8283373B2.

tested on: TXB2; assay: Rat Whole Blood Assay (A23187-stimulated TXB2); type: cell-based; details: Rattus norvegicus; A23187 5 μM
pIC50: −log10 of the molar value.
pIC50 reference
MEASURED METRIC: pIC50

COMPOUND	REPORTED VALUE
O=C(O)c1ccc(CCCc2c(CCNS(=O)(=O)Cc3ccccc3Br)n(C(c3ccccc3)c3ccccc3)c3ccc(Cl)cc23)cc1 [Example 24]	7.52
CN(CCc1c(CCCc2ccc(C(=O)O)cc2)c2cc(Cl)ccc2n1C(c1ccccc1)c1ccccc1)S(=O)(=O)Cc1ccccc1C(F)(F)F [Example 11]	6.42
N#Cc1ccccc1-c1ccccc1CS(=O)(=O)NCCc1c(CCCc2ccc(C(=O)O)cc2)c2cc(Cl)ccc2n1C(c1ccccc1)c1ccccc1 [Example 37]	7.52
CN1CCN(Cc2ccccc2CS(=O)(=O)NCCc2c(CCCc3ccc(C(=O)O)cc3)c3cc(Cl)ccc3n2C(c2ccccc2)c2ccccc2)CC1 [Example 22]	7.10
O=C(O)CCc1ccc(S(=O)(=O)CCc2c(CCNS(=O)(=O)Cc3ccccc3C(F)(F)F)n(C(c3ccccc3)c3ccccc3)c3ccc(Cl)cc23)cc1 [Example 38]	8.00
O=C(O)c1ccc(CCCc2c(CCNS(=O)(=O)Cc3c(Br)cccc3Br)n(C(c3ccccc3)c3ccccc3)c3ccc(Cl)cc23)cc1 [Example 7]	7.52
O=C(O)c1ccc(CCCc2c(CCNS(=O)(=O)Cc3c(Cl)cccc3Cl)n(C(c3ccccc3)c3ccccc3)c3ccc(Cl)cc23)cc1 [Example 8]	7.70
O=C(O)c1ccc(OCCc2c(CCNS(=O)(=O)Cc3c(Br)cccc3Br)n(C(c3ccccc3)c3ccccc3)c3ccc(Cl)cc23)cc1 [Example 3]	7.22

====

system: TXB2; test: Rat Whole Blood Assay (A23187-stimulated TXB2); format: cell-based; settings: Rattus norvegicus; A23187 5 μM
pIC50: −log10 of the molar value.
pIC50 reference

COMPOUND	pIC50
CC(c1ccccc1C(F)(F)F)S(=O)(=O)NCCc1c(CCS(=O)(=O)c2ccc(CCC(=O)O)cc2)c2cc(Cl)ccc2n1C(c1ccccc1)c1ccccc1 (stereo not drawn) [Example 39]	7.70
Cc1noc(C)c1-c1ccccc1CS(=O)(=O)NCCc1c(CCCc2ccc(C(=O)O)cc2)c2cc(Cl)ccc2n1C(c1ccccc1)c1ccccc1 [Example 33]	7.70
O=C(O)c1ccc(OCCc2c(CCNS(=O)(=O)Cc3c(F)cccc3C(F)(F)F)n(C(c3ccccc3)c3ccccc3)c3ccc(Cl)cc23)cc1 [Example 6]	7.10

====

IC50 reference
test system: TXB2; assay: Rat Whole Blood Assay (A23187-stimulated TXB2); type: cell-based; details: Rattus norvegicus; A23187 5 μM

SMILES REPR	READOUT UNITS	IC50
O=C(O)c1ccc(CCCc2c(CCNS(=O)(=O)Cc3c(F)cccc3C(F)(F)F)n(C(c3ccccc3)c3ccccc3)c3ccc(Cl)cc23)cc1	nM	20
O=C(O)c1ccc(CCCc2c(CCNS(=O)(=O)Cc3ccccc3-c3ccsc3)n(C(c3ccccc3)c3ccccc3)c3ccc(Cl)cc23)cc1	nM	50
O=C(O)c1ccc(CCCc2c(CCNS(=O)(=O)Cc3ccccc3C(F)(F)F)n(C(c3ccccc3)c3ccccc3)c3ccc(Cl)cc23)cc1	nM	20
COC(=O)c1ccccc1CS(=O)(=O)NCCc1c(CCCc2ccc(C(=O)O)cc2)c2cc(Cl)ccc2n1C(c1ccccc1)c1ccccc1	nM	30
CCN(CC)Cc1ccccc1CS(=O)(=O)NCCc1c(CCCc2ccc(C(=O)O)cc2)c2cc(Cl)ccc2n1C(c1ccccc1)c1ccccc1	nM	40
O=C(O)c1ccc(CCCc2c(CCNS(=O)(=O)Cc3ccccc3CO)n(C(c3ccccc3)c3ccccc3)c3ccc(Cl)cc23)cc1	nM	30
O=C(O)c1ccc(CCCc2c(CCNS(=O)(=O)Cc3ccccc3OC(F)(F)F)n(C(c3ccccc3)c3ccccc3)c3ccc(Cl)cc23)cc1	nM	30
O=C(O)c1ccc(CCCc2c(CCNS(=O)(=O)Cc3ccccc3-c3ccccc3OC(F)(F)F)n(C(c3ccccc3)c3ccccc3)c3ccc(Cl)cc23)cc1	nM	70
O=C(O)c1ccc(CCCc2c(CCNS(=O)(=O)Cc3ccccc3-c3ccccc3)n(C(c3ccccc3)c3ccccc3)c3ccc(Cl)cc23)cc1	nM	50
O=C(O)c1ccc(CCCc2c(CCNS(=O)(=O)Cc3ccccc3-c3cccnc3)n(C(c3ccccc3)c3ccccc3)c3ccc(Cl)cc23)cc1	nM	40
O=C(O)c1ccc(CCCc2c(CCNS(=O)(=O)Cc3ccccc3-c3cccc4cccnc34)n(C(c3ccccc3)c3ccccc3)c3ccc(Cl)cc23)cc1	nM	30
